Experiment: Phase II study 2 x 90 mg i.m. Days 1 and 8 (A014): plasma PK of teverelix
Format: in vivo
Conditions: male, human, im, 90 mg, Day 8 (Dose 2): 1 x 90 mg i.m., N=14, read-out: AUC (0-∞) Geometric mean
Where a name gives a salt, the structure may show the parent alone. Non-standard residues stand in square brackets, D forms with d. Residues, ends and D or L forms follow the SMILES beside them. dPhe(4-Cl) = N[C@H](Cc1ccc(Cl)cc1)C(=O)O; d2Nal = N[C@H](Cc1ccc2ccccc2c1)C(=O)O; d(hCit) = NC(=O)NCCCC[C@@H](N)C(=O)O; Lys(iPr) = CC(C)NCCCC[C@H](N)C(=O)O; d3Pal = N[C@H](Cc1cccnc1)C(=O)O
PROPERTY NAME: AUC(0-inf) (ng·h/mL)

CC(=O)N[C@H](Cc1ccc2ccccc2c1)C(=O)N[C@H](Cc1ccc(Cl)cc1)C(=O)N[C@H](Cc1cccnc1)C(=O)N[C@@H](CO)C(=O)N[C@@H](Cc1ccc(O)cc1)C(=O)N[C@H](CCCCNC(N)=O)C(=O)N[C@@H](CC(C)C)C(=O)N[C@@H](CCCCNC(C)C)C(=O)N1CCC[C@H]1C(=O)N[C@H](C)C(N)=O [Teverelix TFA, teverelix trifluoroacetate] (Ac-[d2Nal][dPhe(4-Cl)][d3Pal]SY[d(hCit)]L[Lys(iPr)]P[dA]-NH2) : 9380

====

Experiment: Water solubility of teverelix
Type: physicochemical
Non-standard residues stand in square brackets, D forms with d. Residues, ends and D or L forms follow the SMILES beside them. Phe(4-Cl) = N[C@@H](Cc1ccc(Cl)cc1)C(=O)O; d2Nal = N[C@H](Cc1ccc2ccccc2c1)C(=O)O; d(hCit) = NC(=O)NCCCC[C@@H](N)C(=O)O; Lys(iPr) = CC(C)NCCCC[C@H](N)C(=O)O; d3Pal = N[C@H](Cc1cccnc1)C(=O)O
PROPERTY NAME: solubility

CC(=O)N[C@H](Cc1ccc2ccccc2c1)C(=O)N[C@@H](Cc1ccc(Cl)cc1)C(=O)N[C@H](Cc1cccnc1)C(=O)N[C@@H](CO)C(=O)N[C@H](Cc1ccc(O)cc1)C(=O)N[C@H](CCCCNC(N)=O)C(=O)N[C@@H](CC(C)C)C(=O)N[C@@H](CCCCNC(C)C)C(=O)N1CCC[C@H]1C(=O)N[C@H](C)C(N)=O [teverelix] (Ac-[d2Nal][Phe(4-Cl)][d3Pal]S[dY][d(hCit)]L[Lys(iPr)]P[dA]-NH2) : ~10000 µg/mL

====

Assay: Phase II study 2 x 90 mg i.m. Days 1 and 8 (A014): plasma PK of teverelix
Type: in vivo
Conditions: male, human, im, 90 mg, Day 8 (Dose 2): 1 x 90 mg i.m., N=14, read-out: Cmax (obs) Geometric mean
Structures can show the parent of a compound that is named as a salt. Non-standard residues stand in square brackets, D forms with d. Residues, ends and D or L forms follow the SMILES beside them. dPhe(4-Cl) = N[C@H](Cc1ccc(Cl)cc1)C(=O)O; d2Nal = N[C@H](Cc1ccc2ccccc2c1)C(=O)O; d(hCit) = NC(=O)NCCCC[C@@H](N)C(=O)O; Lys(iPr) = CC(C)NCCCC[C@H](N)C(=O)O; d3Pal = N[C@H](Cc1cccnc1)C(=O)O
PROPERTY NAME: Cmax (ng/mL)

CC(=O)N[C@H](Cc1ccc2ccccc2c1)C(=O)N[C@H](Cc1ccc(Cl)cc1)C(=O)N[C@H](Cc1cccnc1)C(=O)N[C@@H](CO)C(=O)N[C@@H](Cc1ccc(O)cc1)C(=O)N[C@H](CCCCNC(N)=O)C(=O)N[C@@H](CC(C)C)C(=O)N[C@@H](CCCCNC(C)C)C(=O)N1CCC[C@H]1C(=O)N[C@H](C)C(N)=O [Teverelix TFA, teverelix trifluoroacetate] (Ac-[d2Nal][dPhe(4-Cl)][d3Pal]SY[d(hCit)]L[Lys(iPr)]P[dA]-NH2) : 38

Taken from patent US20180214506A1.
